- MEASURED_TARGET: Oxytocin receptor (Homo sapiens, UniProt P30559)
- Sequence (P30559 whole entry): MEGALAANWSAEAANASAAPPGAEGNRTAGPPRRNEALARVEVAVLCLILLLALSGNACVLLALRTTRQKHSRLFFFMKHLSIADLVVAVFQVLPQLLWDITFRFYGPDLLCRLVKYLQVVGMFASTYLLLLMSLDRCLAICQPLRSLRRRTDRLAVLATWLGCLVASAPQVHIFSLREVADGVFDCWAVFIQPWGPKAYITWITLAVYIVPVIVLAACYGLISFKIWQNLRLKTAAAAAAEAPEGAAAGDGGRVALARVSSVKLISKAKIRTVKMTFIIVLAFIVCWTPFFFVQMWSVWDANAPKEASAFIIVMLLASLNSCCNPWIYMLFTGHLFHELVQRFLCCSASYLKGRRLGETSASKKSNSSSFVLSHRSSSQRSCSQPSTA
- ASSAY_NOTES: Ability to displace [3H]oxytocin from human OT receptor (hOT)
ASSAY_METRIC: pKi
Recall that pKi is obtained by taking minus log10 of the concentration measured in molar.

Check out these entries, answers already filled in.
{"GIVEN_SMILES": "Cc1c(C)n(C[C@H]2CCCN2S(C)(=O)=O)c2ccc(C(=O)N3CCC(N4C(=O)OCc5ccccc54)CC3)cc12", "pKi": 6.40}
{"GIVEN_SMILES": "CN(Cc1cc2cc(C(=O)N3CCC(N4C(=O)OCc5ccccc54)CC3)ccc2o1)C(=O)CN1C(=O)CNC1=O", "pKi": 7.60}
{"GIVEN_SMILES": "O=C(Cc1cccnc1)NCc1cc2cc(C(=O)N3CCC(N4C(=O)OCc5ccccc54)CC3)ccc2o1", "pKi": 7.60}
{"GIVEN_SMILES": "CC(=O)NCCn1ccc2cc(C(=O)N3CCC(N4C(=O)OCc5ccccc54)CC3)ccc21", "pKi": 6.40}
{"GIVEN_SMILES": "Cc1c[nH]c2ccc(C(=O)N3CCC(N4C(=O)OCc5ccccc54)CC3)cc12", "pKi": 6.10}

The molecule listed as "CS(=O)(=O)N1CCN(Cc2cc3cc(C(=O)N4CCC(N5C(=O)OCc6ccccc65)CC4)ccc3o2)CC1" shows pKi equal to 7.20

Per the record, "CN(CCn1cnc2cc(C(=O)N3CCC(N4C(=O)OCc5ccccc54)CC3)ccc21)S(C)(=O)=O" has pKi of 6.40

In plain terms, "COc1cc(OC2CCN(C(C)=O)CC2)ccc1C(=O)N1CCC(N2C(=O)OCc3ccccc32)CC1" has a documented pKi of 8.00

---

- ASSAY_NOTES: Bioavailability in dog
- Type: ADME, organism-based, Canis lupus familiaris
- TEST_CONTEXT: in vivo
We use 40% as the dividing line for bioavailability: on or above the line is true (1), below is false (0).

Here are 6 compounds together with their reported answers.
{"GIVEN_SMILES": "CS(=O)(=O)N1CCC(c2cc3cc(C(=O)N4CCC(N5C(=O)OCc6ccccc65)CC4)ccc3o2)CC1", "LABEL_CLASS": "true (1)"}
{"GIVEN_SMILES": "CC(=O)NCC(=O)NCc1cc2cc(C(=O)N3CCC(N4C(=O)OCc5ccccc54)CC3)ccc2o1", "LABEL_CLASS": "false (0)"}
{"GIVEN_SMILES": "CC(=O)N1CCN(Cc2cc3cc(C(=O)N4CCC(N5C(=O)OCc6ccccc65)CC4)ccc3o2)CC1", "LABEL_CLASS": "true (1)"}
{"GIVEN_SMILES": "O=C(CN1C(=O)CNC1=O)NCc1cc2cc(C(=O)N3CCC(N4C(=O)OCc5ccccc54)CC3)ccc2o1", "LABEL_CLASS": "false (0)"}
{"GIVEN_SMILES": "CS(=O)(=O)N1CCN(Cc2cc3cc(C(=O)N4CCC(N5C(=O)OCc6ccccc65)CC4)ccc3o2)CC1", "LABEL_CLASS": "true (1)"}
{"GIVEN_SMILES": "CC(=O)NCCc1cc2cc(C(=O)N3CCC(N4C(=O)OCc5ccccc54)CC3)ccc2o1", "LABEL_CLASS": "false (0)"}

Note: attention shifts to another entry.
Ask: Record "CN(Cc1cc2cc(C(=O)N3CCC(N4C(=O)OCc5ccccc54)CC3)ccc2o1)C(=O)CN1C(=O)CNC1=O" ; criterion: bioavailability no lower than 40%. Met?
Reply: false (0)
